# measuredOn: human FSH receptor (Homo sapiens, UniProt P23945)
# Construct: expressed in transfected cells; host or cells: CHO cells (hFSHR clone 16)
# Sequence (P23945 18-695): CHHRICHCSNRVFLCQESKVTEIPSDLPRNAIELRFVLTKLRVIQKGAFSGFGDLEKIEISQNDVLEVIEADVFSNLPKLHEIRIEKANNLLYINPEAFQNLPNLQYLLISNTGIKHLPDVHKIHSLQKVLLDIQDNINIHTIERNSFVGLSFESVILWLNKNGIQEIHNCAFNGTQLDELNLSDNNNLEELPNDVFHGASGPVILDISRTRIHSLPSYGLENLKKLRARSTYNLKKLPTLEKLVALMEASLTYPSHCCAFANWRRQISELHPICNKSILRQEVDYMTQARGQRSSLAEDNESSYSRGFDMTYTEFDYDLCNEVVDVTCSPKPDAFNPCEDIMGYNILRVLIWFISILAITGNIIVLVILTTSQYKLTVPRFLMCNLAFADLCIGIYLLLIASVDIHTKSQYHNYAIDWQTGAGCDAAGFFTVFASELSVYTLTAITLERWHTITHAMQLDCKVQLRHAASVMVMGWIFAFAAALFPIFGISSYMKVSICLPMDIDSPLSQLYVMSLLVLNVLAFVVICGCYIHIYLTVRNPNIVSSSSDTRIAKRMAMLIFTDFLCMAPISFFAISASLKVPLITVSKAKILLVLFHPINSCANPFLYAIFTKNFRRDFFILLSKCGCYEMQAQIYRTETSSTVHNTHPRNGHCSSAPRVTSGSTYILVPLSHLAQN
# assayRemarks: HTRF assay for measuring cAMP in cells (FSH antagonism)
# Format: cell-based
# appliedConditions: hFSHR clone 16 cells (CHO cells stably transfected with the human FSH receptor); in the presence of 1e-9 mol/l hFSH; 37° C. for 2 h; read-out: IC50 (FSH-antagonistic effect in the HTRF assay)
metric: IC50 (µM)
Give bare numbers, in µM.

Record excerpt, results attached:
INSERT INTO measurements (compound, measuredon, metric, val) VALUES
  ('COc1ccccc1C#Cc1ccc(OC(C)C)c(C(=O)NC(CO)Cc2c[nH]c3ncccc23)c1 (stereo not shown)', 'human FSH receptor (Homo sapiens, UniProt P23945)', 'IC50', 4),
  ('COc1ccccc1C#Cc1ccc(OC(C)C)c(C(=O)NC(CO)Cc2c[nH]c3cccnc23)c1 (stereo not shown)', 'human FSH receptor (Homo sapiens, UniProt P23945)', 'IC50', 0.2),
  ('COc1ccc2nc(-c3cc(OC)c(OC)c(OC)c3)cc(C(=O)N[C@@H](CO)Cc3csc4ccccc34)c2c1', 'human FSH receptor (Homo sapiens, UniProt P23945)', 'IC50', 6),
  ('COc1ccc2nc(-c3cc(OC)c(OC)c(OC)c3)cc(C(=O)NC(CO)Cc3ccc4ccccc4c3)c2c1 (stereo not shown)', 'human FSH receptor (Homo sapiens, UniProt P23945)', 'IC50', 10),
  ('CNC(=O)c1ccc(-c2cc3c(c(C(=O)NC(CO)Cc4c[nH]c5ncccc45)c2)OC(C)(C)C=C3)cc1Cl (stereo not shown)', 'human FSH receptor (Homo sapiens, UniProt P23945)', 'IC50', 0.065),
  ('COc1ccc2nc(-c3cc(OC)c(OC)c(OC)c3)cc(C(=O)N[C@@H](CO)Cc3ccc4ccccc4c3)c2c1', 'human FSH receptor (Homo sapiens, UniProt P23945)', 'IC50', 8);

Given the compound CNC(=O)c1ccc(-c2ccc(OC(C)C)c(C(=O)NC(CO)Cc3c[nH]c4cnccc34)c2)cc1Cl (stereo not shown) , what is its reported IC50?
6.5

###

# measuredOn: human FSH receptor (Homo sapiens)
# assayRemarks: HTRF assay for measuring cAMP in cells (FSH antagonism)
# appliedConditions: hFSHR clone 16 cells (CHO cells stably transfected with the human FSH receptor); in the presence of 1e-9 mol/l hFSH; 37° C. for 2 h; read-out: IC50 (FSH-antagonistic effect in the HTRF assay)
metric: pIC50
Numbers only, as −log10 of the molar value.

INSERT INTO measurements (compound, val) VALUES
  ('COc1ccc2nc(-c3ccc(OC)c(F)c3)nc(C(=O)NC(CO)Cc3c[nH]c4cccnc34)c2c1 (stereo not shown)', 5.30),
  ('COc1ccccc1C#Cc1ccc(OC(C)C)c(C(=O)NC(CO)Cc2c[nH]c3cnccc23)c1 (stereo not shown)', 5.30),
  ('CNC(=O)c1ccc(C#Cc2ccc(OC(F)(F)F)c(C(=O)N[C@@H](CO)Cc3n[nH]c4cccc(F)c34)c2)cc1 (stereo in doubt)', 5.05);

Which pIC50 value belongs to CNC(=O)c1cc(F)cc(-c2ccc(OC(C)C)c(C(=O)NC(CO)Cc3c[nH]c4ncccc34)c2)c1 (stereo not shown) ?
5.82
